Target: human alpha1 nicotinic acetylcholine (nACh) receptor (Homo sapiens, UniProt P02708+Q07001)
Sequence (P02708 21-457): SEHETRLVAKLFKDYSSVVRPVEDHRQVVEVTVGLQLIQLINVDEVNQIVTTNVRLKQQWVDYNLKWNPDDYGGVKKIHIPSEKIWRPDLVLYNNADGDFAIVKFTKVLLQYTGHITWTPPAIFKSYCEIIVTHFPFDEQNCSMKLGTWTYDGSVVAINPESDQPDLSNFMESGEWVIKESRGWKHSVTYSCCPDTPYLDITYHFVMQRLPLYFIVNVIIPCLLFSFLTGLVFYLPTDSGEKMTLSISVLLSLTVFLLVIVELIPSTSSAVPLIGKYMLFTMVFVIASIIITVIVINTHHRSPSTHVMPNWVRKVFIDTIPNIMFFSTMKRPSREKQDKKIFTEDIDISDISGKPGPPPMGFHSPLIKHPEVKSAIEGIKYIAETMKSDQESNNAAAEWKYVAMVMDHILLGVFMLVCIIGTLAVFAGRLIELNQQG
Sequence (P11230 24-501 partner): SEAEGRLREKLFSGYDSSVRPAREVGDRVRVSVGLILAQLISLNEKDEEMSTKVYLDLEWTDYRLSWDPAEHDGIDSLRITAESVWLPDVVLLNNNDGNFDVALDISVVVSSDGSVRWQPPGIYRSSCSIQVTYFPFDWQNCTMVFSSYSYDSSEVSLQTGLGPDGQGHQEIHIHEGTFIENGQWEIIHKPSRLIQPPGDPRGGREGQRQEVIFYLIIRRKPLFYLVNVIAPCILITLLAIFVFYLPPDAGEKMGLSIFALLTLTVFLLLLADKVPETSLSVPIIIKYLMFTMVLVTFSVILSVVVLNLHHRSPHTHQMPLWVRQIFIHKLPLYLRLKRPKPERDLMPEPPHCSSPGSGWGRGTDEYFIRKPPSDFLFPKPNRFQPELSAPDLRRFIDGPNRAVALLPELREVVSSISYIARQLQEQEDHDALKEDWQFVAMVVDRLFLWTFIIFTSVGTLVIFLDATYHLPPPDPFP
Sequence (Q07001 22-517): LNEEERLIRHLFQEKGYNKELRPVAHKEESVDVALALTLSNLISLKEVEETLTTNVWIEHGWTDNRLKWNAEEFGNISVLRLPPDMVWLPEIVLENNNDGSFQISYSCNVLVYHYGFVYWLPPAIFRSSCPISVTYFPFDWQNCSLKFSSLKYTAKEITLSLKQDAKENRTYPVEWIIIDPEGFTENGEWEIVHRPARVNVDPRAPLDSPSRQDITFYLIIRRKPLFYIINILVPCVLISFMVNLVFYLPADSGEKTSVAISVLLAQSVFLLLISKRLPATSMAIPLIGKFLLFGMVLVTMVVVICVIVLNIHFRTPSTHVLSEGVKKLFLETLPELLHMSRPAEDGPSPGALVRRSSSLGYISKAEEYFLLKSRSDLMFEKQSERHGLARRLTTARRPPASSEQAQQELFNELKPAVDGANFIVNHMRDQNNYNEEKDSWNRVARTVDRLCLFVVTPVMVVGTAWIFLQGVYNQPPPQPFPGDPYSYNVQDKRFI
Test: Nicotinic acetylcholine receptor antagonism assay, IONFlux automated patch clamp (Example 203)
Settings: nAChR antagonism; ACh stimulated; patch clamp
pIC50: −log10 of the molar value.
property-measured: pIC50

compound	pIC50
CC(C)N(C)[C@@H]1CC[C@H](N2CC[C@H](Nc3ncnc4ccc(C(F)(F)F)cc34)C2=O)[C@H](NC(=O)c2ccc(C3CCN(CCOCCOCCNC(=O)[C@H]4CC(=O)N(C)[C@@H]4c4cccnc4)CC3)cn2)C1 [Example 94]	5.33

a: CC(C)N(C)[C@@H]1CC[C@H](N2CC[C@H](Nc3ncnc4ccc(C(F)(F)F)cc34)C2=O)[C@H](NC(=O)[C@H]2C[C@H](NC(=O)CCOCCOCCOCCNC(=O)[C@H]3CC(=O)N(C)[C@@H]3c3cccnc3)C2)C1 [Example 27]
b: CCN1C(=O)C[C@H](C(=O)NCCOCCOCCOCCC(=O)N[C@H]2CC[C@@H](C(=O)N[C@@H]3C[C@H](N(C)C(C)C)CC[C@@H]3N3CC[C@H](Nc4ncnc5ccc(C(F)(F)F)cc45)C3=O)CC2)[C@H]1c1cccnc1 [Example 34]
Task: Form field 'greater pIC50' accepts a or b ; which applies? Let me know the label of the one you choose.
Output: b
